These measurements were taken from ChEMBL document CHEMBL1157539.

Give measured XC50 for each item. Keep answers brief.
# System: Plasmodium falciparum
# TEST_SUMMARY: GSK_TCMDC: Inhibition of Plasmodium falciparum 3D7 in whole erythrocytes, using parasite LDH activity as an index of growth.
# Type: functional, organism-based
# CONDITION_NOTES: Plasmodium falciparum, 3D7
Please make sure the unit comes right after the number.

- MOLECULE: "CN1CCCN(Cc2cccc(-c3cccc(NC(=O)c4cccc(C#N)c4)c3)c2)CC1"
  XC50: "818 nM"

For each of the molecules below, note its XC50.
1. O=C(Cc1cccc2ccccc12)N1CCc2cc3nccc(N4CCN5CCC[C@H]5C4)c3cc21
2. Cc1cccc(CN2CCC(CNC(=O)c3cc4c(-c5ccccc5F)nn(C)c4s3)CC2)c1

["777 nM", "1090 nM"]

* * *

# Test system: Plasmodium falciparum
# TEST_SUMMARY: GSK_TCMDC: Inhibition of Plasmodium falciparum 3D7 in whole erythrocytes, using parasite LDH activity as an index of growth.
# Assay type: functional, organism-based
# CONDITION_NOTES: Plasmodium falciparum, 3D7
QUANTITY_KIND: XC50 (nM)
One number for each entry, in nM.

Solved entries (count: 3):
- COMPOUND: "COc1ccc(C[C@H]2NC[C@H](O)[C@H]2OC(C)=O)cc1"
  QUANTITY_KIND: "XC50"
  VALUE_UNITS: "nM"
  REPORTED_VALUE: 138
- COMPOUND: "Nc1ncc(-c2ccc3ncccc3c2)c(N)n1"
  QUANTITY_KIND: "XC50"
  VALUE_UNITS: "nM"
  REPORTED_VALUE: 918
- COMPOUND: "Cc1c(S(=O)(=O)Nc2ccc3ccn(CCN(C)C)c3c2)sc2ccc(Cl)cc12"
  QUANTITY_KIND: "XC50"
  VALUE_UNITS: "nM"
  REPORTED_VALUE: 921

For each of the compounds below, note its XC50.
1. O=C(Nc1ccc(Cn2ncc(N3CCCNCC3)c(Cl)c2=O)cc1)Nc1cc(Cl)cc(Cl)c1
2. CN1CC=C(c2csc3ccc(NC(=O)Nc4ccc(-c5ccncc5)c5ccccc45)cc23)CC1
3. O=C(Nc1cccc(-c2cccc(-c3nc4cc(F)ccc4[nH]3)c2)c1)Nc1ccc2c(c1)OCO2

866
804
137

For each of the compounds below, note its XC50.
1. CN(C)CCNCc1ccc(-c2ccc(-c3nc4cc(F)ccc4[nH]3)cc2)cc1
2. CCN(CCCN1CCCCC1)c1cc(C)nc(Nc2ccc(C(F)(F)F)cc2)n1

474
374

For each of the compounds below, note its XC50.
1. O=C(NCCN1CCOCC1)c1ccc(O)c(-c2cccc(C(F)(F)F)c2)c1
2. Cc1cc(F)ccc1[C@H]1CNCCN1C(=O)N(C)C(C)(C)c1cc(C(F)(F)F)cc(C(F)(F)F)c1
3. COc1ccc2nccc([C@@H](O)CN3CCC(NCc4cnc5snnc5c4)C(F)C3)c2c1 (stereo partly specified)

752
594
1350

* * *

# System: Plasmodium falciparum
# TEST_SUMMARY: GSK_TCMDC: Inhibition of Plasmodium falciparum 3D7 in whole erythrocytes, using parasite LDH activity as an index of growth.
# Format: functional, organism-based
# CONDITION_NOTES: Plasmodium falciparum, 3D7
Give measured log10(XC50) for each item. Keep answers brief.
Could you please treat all values as log10 of XC50 in nM?

Solved entries (count: 8):
- COMPOUND: "CCCc1ccccc1OCC(O)CN(C1CCCC1)C1CCCC1 (stereo not given)"
  log10(XC50): 2.67
- COMPOUND: "CC(C)Sc1nc2c(c(=O)n1CCc1ccccc1)C1(CCCCC1)Cc1ccccc1-2"
  log10(XC50): 3.27
- COMPOUND: "CC(=O)N1Cc2ccccc2C1=O"
  log10(XC50): 2.72
- COMPOUND: "N#Cc1ccc(N[C@@H](CC2CCCCC2)C(=O)NCc2cc(F)c(F)cc2F)c2ccccc12"
  log10(XC50): 2.98
- COMPOUND: "CN(c1ccc(NC(=O)Nc2cc(C(F)(F)F)ccc2F)cc1)c1ccnc(NCCN2CCOCC2)n1"
  log10(XC50): 2.71
- COMPOUND: "CN(C)c1ccc(-c2csc(C(=O)NC3CCCCN(Cc4ccc(C(C)(C)C)cc4)C3)c2)cc1 (stereo not given)"
  log10(XC50): 3.05
- COMPOUND: "Cc1ccc2c(OCCN3CCC(Cc4ccc5c(c4)NC(=O)CO5)CC3)cc(F)cc2n1"
  log10(XC50): 2.88
- COMPOUND: "Cc1cc2nc(N/C(N)=N/C(=O)NC3CCCCC3)nc(C)c2cc1C"
  log10(XC50): 2.88

For each of the compounds below, note its log10(XC50).
1. CN1CCN(c2cccc(NC(=O)c3ccc(-c4ccc(C#N)cc4)cc3)c2)CC1
2. CCCCCCNC(=N)c1ccc2[nH]c(-c3ccc(O)cc3)nc2c1
3. CC1(CCN2CCC(c3c[nH]c4cnccc34)CC2)CCCc2c(Br)cccc2C1=O (stereo not given)
4. CN1CCN(CCCN(Cc2ccc(-c3ccc(CNC4CCCC4)cc3)cc2)C(=O)CCC2CCCC2)CC1
5. COc1ccc(-c2cnc3[nH]cc(-c4ccc(C(=O)O)c(C)c4)c3c2)cn1

1. 3.10
2. 2.28
3. 2.29
4. 2.95
5. 2.49

For each of the compounds below, note its log10(XC50).
1. Cc1noc(-c2ccc3c(c2)CCN(CCC2CCC(NC(=O)/C=C/c4ccc(F)cc4)CC2)CC3)n1 (stereo not given)
2. Cc1ccc(CN2CCCCC(NC(=O)c3cc4ccccc4s3)C2)cc1 (stereo not given)
3. COc1ccc2nccc([C@@H](O)CN3CCC(NCc4nc5c(C#N)cccc5[nH]4)CC3)c2c1
4. OC(COCc1ccc(-c2ccccc2)cc1)CN1CCCCC1 (stereo not given)

3.01
2.95
3.00
2.43

For each of the compounds below, note its log10(XC50).
1. COc1ccc(CNC(=O)NC2CCN(c3ccnc(Nc4ccc(F)cc4)n3)C2)cc1 (stereo not given)
2. Cc1cc(N[C@@H](C)C(=O)Nc2ccccc2)nc(NCCc2ccc(F)cc2)n1
3. COc1c(C2CCN(CCCCNC(=O)c3ccc(-c4ccc(C#N)cc4)nc3)CC2)ccc2c1CCCC2
4. Fc1ccc2[nH]c(-c3ccc(-c4ccc(CNCc5cnn(-c6ccccc6)n5)cc4)cc3)nc2c1
5. CCCCN(CCCC)CCCCCCNc1c2ccccc2nc2ccccc12
6. COc1ccc2nccc([C@@H](O)CN3CCC(NCCOc4cccc(C(F)(F)F)c4Cl)CC3)c2c1
7. COCCN1CCC(N(CC2(O)CCN(c3ccc(C(F)(F)F)cc3)CC2)C(=O)Cn2c(SCc3cccc(F)c3F)cc(=O)c3ccccc32)CC1
8. O=C(Nc1ccc(Cl)cc1)Nc1cccc(-c2cccc(-c3nc4cc(C(F)(F)F)ccc4[nH]3)c2)c1

[2.93, 3.05, 2.72, 2.73, 2.89, 2.19, 2.91, 2.36]
